conditions: in sec-butanol, 313.2 K

| compound | solubility (mole fraction) |
| --- | --- |
| C[C@]12C=CC(=O)C=C1CC[C@@H]1[C@@H]2[C@@H](O)C[C@@]2(C)[C@H]1CC[C@]2(O)C(=O)CO | 0.00053 |

---

settings: in n-dodecane, 293.2 K
measure.name: solubility (mole fraction)

| compound | value |
| --- | --- |
| C[C@]12C=CC(=O)C=C1CC[C@@H]1[C@@H]2[C@@H](O)C[C@@]2(C)[C@H]1CC[C@]2(O)C(=O)CO | 1.44e-05 |

---

settings: in water, 313.2 K
measure.name: solubility (mole fraction)

| compound | measure.name | value |
| --- | --- | --- |
| C[C@]12C=CC(=O)C=C1CC[C@@H]1[C@@H]2[C@@H](O)C[C@@]2(C)[C@H]1CC[C@]2(O)C(=O)CO | solubility (mole fraction) | 1.6e-05 |

---

details: in n-hexadecane, 308.2 K

| compound | solubility (mole fraction) |
| --- | --- |
| C[C@]12C=CC(=O)C=C1CC[C@@H]1[C@@H]2[C@@H](O)C[C@@]2(C)[C@H]1CC[C@]2(O)C(=O)CO | 3.01e-05 |

---

details: in n-hexadecane, 328.2 K

| compound | solubility (mole fraction) |
| --- | --- |
| C[C@]12C=CC(=O)C=C1CC[C@@H]1[C@@H]2[C@@H](O)C[C@@]2(C)[C@H]1CC[C@]2(O)C(=O)CO | 5.41e-05 |

---

conditions: in n-dodecane, 313.2 K
measure.name: solubility (mole fraction)

| compound | measure.name | value |
| --- | --- | --- |
| C[C@]12C=CC(=O)C=C1CC[C@@H]1[C@@H]2[C@@H](O)C[C@@]2(C)[C@H]1CC[C@]2(O)C(=O)CO | solubility (mole fraction) | 2.45e-05 |

---

details: in sec-butanol, 293.2 K

| compound | solubility (mole fraction) |
| --- | --- |
| C[C@]12C=CC(=O)C=C1CC[C@@H]1[C@@H]2[C@@H](O)C[C@@]2(C)[C@H]1CC[C@]2(O)C(=O)CO | 0.000248 |

---

settings: in acetonitrile, 303.2 K
measure.name: solubility (mole fraction)

| compound | measure.name | value |
| --- | --- | --- |
| C[C@]12C=CC(=O)C=C1CC[C@@H]1[C@@H]2[C@@H](O)C[C@@]2(C)[C@H]1CC[C@]2(O)C(=O)CO | solubility (mole fraction) | 0.00255 |

---

conditions: in n-nonanol, 303.2 K

| compound | solubility (mole fraction) |
| --- | --- |
| C[C@]12C=CC(=O)C=C1CC[C@@H]1[C@@H]2[C@@H](O)C[C@@]2(C)[C@H]1CC[C@]2(O)C(=O)CO | 0.000833 |

---

details: in water, 293.2 K

| compound | solubility (mole fraction) |
| --- | --- |
| C[C@]12C=CC(=O)C=C1CC[C@@H]1[C@@H]2[C@@H](O)C[C@@]2(C)[C@H]1CC[C@]2(O)C(=O)CO | 1.05e-05 |

---

conditions: in acetonitrile, 293.2 K

| compound | solubility (mole fraction) |
| --- | --- |
| C[C@]12C=CC(=O)C=C1CC[C@@H]1[C@@H]2[C@@H](O)C[C@@]2(C)[C@H]1CC[C@]2(O)C(=O)CO | 0.00219 |

---

settings: in n-nonanol, 328.2 K

| compound | solubility (mole fraction) |
| --- | --- |
| C[C@]12C=CC(=O)C=C1CC[C@@H]1[C@@H]2[C@@H](O)C[C@@]2(C)[C@H]1CC[C@]2(O)C(=O)CO | 0.00215 |

---

settings: in n-nonanol, 298.2 K

| compound | solubility (mole fraction) |
| --- | --- |
| C[C@]12C=CC(=O)C=C1CC[C@@H]1[C@@H]2[C@@H](O)C[C@@]2(C)[C@H]1CC[C@]2(O)C(=O)CO | 0.000643 |

---

details: in sec-butanol, 323.2 K
measure.name: solubility (mole fraction)

| compound | value |
| --- | --- |
| C[C@]12C=CC(=O)C=C1CC[C@@H]1[C@@H]2[C@@H](O)C[C@@]2(C)[C@H]1CC[C@]2(O)C(=O)CO | 0.00075 |

---

settings: in DMF, 328.2 K
measure.name: solubility (mole fraction)

| compound | measure.name | value |
| --- | --- | --- |
| C[C@]12C=CC(=O)C=C1CC[C@@H]1[C@@H]2[C@@H](O)C[C@@]2(C)[C@H]1CC[C@]2(O)C(=O)CO | solubility (mole fraction) | 0.0141 |

---

conditions: in n-dodecane, 328.2 K

| compound | solubility (mole fraction) |
| --- | --- |
| C[C@]12C=CC(=O)C=C1CC[C@@H]1[C@@H]2[C@@H](O)C[C@@]2(C)[C@H]1CC[C@]2(O)C(=O)CO | 3.82e-05 |

---

settings: in n-pentanol, 318.2 K
measure.name: solubility (mole fraction)

| compound | value |
| --- | --- |
| C[C@]12C=CC(=O)C=C1CC[C@@H]1[C@@H]2[C@@H](O)C[C@@]2(C)[C@H]1CC[C@]2(O)C(=O)CO | 0.000881 |

---

settings: in n-pentanol, 303.2 K
measure.name: solubility (mole fraction)

| compound | measure.name | value |
| --- | --- | --- |
| C[C@]12C=CC(=O)C=C1CC[C@@H]1[C@@H]2[C@@H](O)C[C@@]2(C)[C@H]1CC[C@]2(O)C(=O)CO | solubility (mole fraction) | 0.000449 |

---

details: in n-hexadecane, 298.2 K
measure.name: solubility (mole fraction)

| compound | value |
| --- | --- |
| C[C@]12C=CC(=O)C=C1CC[C@@H]1[C@@H]2[C@@H](O)C[C@@]2(C)[C@H]1CC[C@]2(O)C(=O)CO | 2.35e-05 |

---

settings: in n-nonanol, 308.2 K

| compound | solubility (mole fraction) |
| --- | --- |
| C[C@]12C=CC(=O)C=C1CC[C@@H]1[C@@H]2[C@@H](O)C[C@@]2(C)[C@H]1CC[C@]2(O)C(=O)CO | 0.000999 |

---

conditions: in n-nonanol, 293.2 K

| compound | solubility (mole fraction) |
| --- | --- |
| C[C@]12C=CC(=O)C=C1CC[C@@H]1[C@@H]2[C@@H](O)C[C@@]2(C)[C@H]1CC[C@]2(O)C(=O)CO | 0.000507 |

---

details: in water, 308.2 K

| compound | solubility (mole fraction) |
| --- | --- |
| C[C@]12C=CC(=O)C=C1CC[C@@H]1[C@@H]2[C@@H](O)C[C@@]2(C)[C@H]1CC[C@]2(O)C(=O)CO | 1.4e-05 |

---

details: in n-hexadecane, 313.2 K

| compound | solubility (mole fraction) |
| --- | --- |
| C[C@]12C=CC(=O)C=C1CC[C@@H]1[C@@H]2[C@@H](O)C[C@@]2(C)[C@H]1CC[C@]2(O)C(=O)CO | 3.4e-05 |

---

conditions: in n-octanol, 313.2 K

| compound | solubility (mole fraction) |
| --- | --- |
| C[C@]12C=CC(=O)C=C1CC[C@@H]1[C@@H]2[C@@H](O)C[C@@]2(C)[C@H]1CC[C@]2(O)C(=O)CO | 0.000913 |

---

settings: in DMF, 318.2 K

| compound | solubility (mole fraction) |
| --- | --- |
| C[C@]12C=CC(=O)C=C1CC[C@@H]1[C@@H]2[C@@H](O)C[C@@]2(C)[C@H]1CC[C@]2(O)C(=O)CO | 0.0116 |

---

details: in NMP, 313.2 K
measure.name: solubility (mole fraction)

| compound | value |
| --- | --- |
| C[C@]12C=CC(=O)C=C1CC[C@@H]1[C@@H]2[C@@H](O)C[C@@]2(C)[C@H]1CC[C@]2(O)C(=O)CO | 0.00784 |

---

settings: in n-pentanol, 308.2 K
measure.name: solubility (mole fraction)

| compound | value |
| --- | --- |
| C[C@]12C=CC(=O)C=C1CC[C@@H]1[C@@H]2[C@@H](O)C[C@@]2(C)[C@H]1CC[C@]2(O)C(=O)CO | 0.000559 |

---

conditions: in NMP, 298.2 K
measure.name: solubility (mole fraction)

| compound | measure.name | value |
| --- | --- | --- |
| C[C@]12C=CC(=O)C=C1CC[C@@H]1[C@@H]2[C@@H](O)C[C@@]2(C)[C@H]1CC[C@]2(O)C(=O)CO | solubility (mole fraction) | 0.00525 |

---

details: in DMF, 308.2 K

| compound | solubility (mole fraction) |
| --- | --- |
| C[C@]12C=CC(=O)C=C1CC[C@@H]1[C@@H]2[C@@H](O)C[C@@]2(C)[C@H]1CC[C@]2(O)C(=O)CO | 0.0101 |
